The origin of these recorded values is patent US20170112908A1.

- target desc: polyclonal antibodies in mouse sera specific for human PCSK9 aa 153-162 or aa 153-165
- method notes: competition ELISA, 20 ug peptide with sera, plate coated with m2 (competitor)
Collected % Competition compared to the related control group values appear next to each entry.
State just the number; it will be interpreted in %.

[in] Could you tell me which % Competition compared to the related control group is on file for `SIPWNLERITPPS` ?
[out] 66

[in] Could you tell me which % Competition compared to the related control group is on file for `SQPWNLERLT` ?
[out] 69

[in] Could you tell me which % Competition compared to the related control group is on file for `SIPSNLERIT` ?
[out] 7

[in] Could you tell me which % Competition compared to the related control group is on file for `SIPWNLERITPNR` ?
[out] 70
